- Tested on: Infiltration of Polymorphonuclear Leukocytes into Sites of Carrageenan-Induced Inflammation
- PROTOCOL: Mouse carrageenan peritonitis (PMN infiltration)
- Assay type: in vivo, mouse (male Balb/c)
- MEASUREMENT PARAMETERS: carrageenan peritonitis, mice
PROPERTY: PMN infiltration, result in words

- O=C1CCN(c2ccccc2)N1: effective
- CC(Cc1ccc(O)c(O)c1)C(C)Cc1ccc(O)c(O)c1 (stereo not shown) [NDGA, Nordihydroguaiaretic acid]: effective
- C[C@@H]1C[C@H]2[C@@H]3CCC4=CC(=O)C=C[C@]4(C)[C@@]3(F)[C@@H](O)C[C@]2(C)[C@@]1(O)C(=O)CO [Dexamethasone, reference compound]: effective
